Target: EGFR on A431 epidermoid carcinoma cells (human, UniProt P00533 25-1210)
Assay: cell-based or functional assay
Listed binders paired with reported Maximum Cell Killing (%)
Please give the number followed by its unit.

H1H163P (antibody, human IgG1, V domains shown, Human IgG1 Fc (H1H)) VH: QVQLVESGGGVVQPGRSLRLSCAASGFTFSNYGMHWVRQAPGKGLEWVTLIEHDGSNKNYVDSVKGRFTISRDNSKNTLYLQMNSLRVEDTAVYYCAKDRITGTPWYGMDVWGQGTTVTVSS VL: DIQMTQSPSSLSASVGDRVTITCRASQDIADYLAWFQQKPGKAPKSLIFAASSLESWVPLKFSGSGSGTDFTLTISSLQPEDFATYYCQQYNRFPITFGQGTRLEIK | 48%
H1H103N (antibody, human IgG1, V domains shown, Tested in human IgG1 Fc format (H1H); also called H1M103N) VH: EVQLVESGGGLVQPGGSLRLSCAASGFTFSSYDMHWVRQTTGKGLEWVSGIGTAGDTYYPGSVKGRFTISREDAKNSLYLQMNSLRAGDTAVYYCARVGYDWNFVAFDYWGQGTLVTVSS VL: DIVMTQSPLSLPVTPGEPASISCRSSQSLLHSNGYNYLDWYLQKPGQSPQLLIHLVSIRASGVPDRFSGSGSGTDFTLKISRVEAEDVGIYYCMQALQTPWTFGQGTKVEIK | 17%
H1H102N (antibody, human IgG1, V domains shown, Tested in human IgG1 Fc format (H1H); also called H1M102N) VH: QVQLQESGPGLVQPSQTLSLTCTVSGGSVSSGDYYWSWIRQHPGKGLEWIGHIYYSGITYYNPSLESRVTITLDTSKNQFSLNLRSVTAADTAVHYCARTAIIGTMDNWGRGTLVTVSS VL: EIVMTQSPATLSVSPGERATLSCRASQSVSSNLAWYQQKPGQAPRLLIYDASTRATGFPARFSGSGSGTEFTLTISSLQSEDFAVYYCQQYNTWWTFGQGTKVEIK | 48%
H1H0085N (antibody, V domains shown, Tested in human IgG1 Fc format (H1H prefix); first obtained as H1M (mouse IgG1 Fc) from a hybridoma; also called H1M085N; H1H085N) VH: EVQLVESGGGLVQPGRSLRLSCAASGFTFDDYAMHWVRQAPGKGLEWVSGINWNSDKIAYADSVKGRFTISRDNAENSLFLQMNSLRPEDTALYYCVKRGDFWTEYYDYWGQGTLVTVSS VL: DIVMTQSPLSLPVTPGEPASISCRSSQSLLHSNGYNYLDWYLQKPGQSPHLLIYLVSTRASGVPDRFSGSGSGTDFTLKISRVEAEDVGVYYCIQALQTPWTFGQGTKVEIK | 35%
H1H158P (antibody, human IgG1, V domains shown, Human IgG1 Fc (H1H)) VH: QVQLVESGGGVVQPGGSLRLSCAASGFTFSIYGIHWVRQAPGKGLEWVAVISDDGSNKKYADSVKGRFTISRDNSKNTLYLQMNSLRAEDTAIFYCAKDRITGTHYYGMDVWGQGTTVTVSS VL: DIQMTQSPSSLSASVGDRVSITCRASQDISNYLAWFQQKPGKAPKSLIYAASSLQSGVPSKFSGSGSGIEFTLTISSLQPEDFSTYYCHQYNRFPWTFGQGTKVEIK | 28%

Look up Maximum Cell Killing (%): H1H142P (antibody, human IgG1, V domains shown, Human IgG1 Fc (H1H)) VH: QVQLQESGPGLVKPSQTLSLTCTVSGGSISSGDYYWNWIRQYPGKGLELIGYIYYSGITYYNPSLKSRLTISLDTSKNQFSLKLSSVTAADTAVYYCARDRVELRAFDIWGQGTMVTVSS VL: DIQMTQSPSSLSASIGDRITISCQASQDINNYLNWYQQKPGKAPKLLIYDASNLETGIPSRFSGSGSGTDFTFTISGLQPEDIATYYCQHYDSLPLTFGQGTRLEIK 34%

Item H1H143P (antibody, human IgG1, V domains shown, Human IgG1 Fc (H1H)) VH: QVQLQESGPGLVMPSQTLSLTCTVSGGSINSGDYYWNWIRQHPGKGLEWIGYIYYSEISYHNPSLKSRVTTSIDTSTNQFSLKLSSVTAADTAVYYCARDRVELRAFDIWGQGTMVTVSS VL: DIQMTQSPSSLSASVGDRVTITCQASQDISNYLNWYQQKPGKAPKLLIYDASNLETGVPSRFSGSGSGTDFTFTISSLQPEDIATYYCQHYDSLPLTFGQGTRLEIK has what recorded Maximum Cell Killing (%)? 13%

Using the record for H1H153P (antibody, human IgG1, V domains shown, Human IgG1 Fc (H1H)) VH: QVQLVESGGGVVQPGKSLRLSCAASGFTFSIYGMNWVRQAPGKGLDWVAVISDDGSNKDYVDSVRGRFTISRDNSKNTLYLQMNSLSAEDTAVYYCAKDRITGTHYYGLDVWGQGTTVTVSS VL: DIQMTQSPSSLSASVGDRITITCRASQDIANYLAWFQQKPGNAPTSLIYAASILQSGVPSKFSGSGSGTDFTLTITSLQPEDFASYYCQQYNRKPWTFGRGTKVEIK , report its Maximum Cell Killing (%). 31%

Need Maximum Cell Killing (%), item H1H169P (antibody, human IgG1, V domains shown, Human IgG1 Fc (H1H)) VH: EVQLVESGGGLVQPGGSLRLSCAASRFTFSTYWMSWVRQAPGKGLEWVAKIKQDGSEKYYLDSVKDRFTISRDNAKNSLYLQMNSLRAEDTAVYYCASSITWYDYYYGMDVWGHGTTVTVSS VL: EIVLTQSPDFQSVTPKEKVTITCRASQSIGSNLHWYQQKPDQSPNLLIKFASQSFSGVPSRFSGSGSGTDFTLTINSLEAEDAATYYCHQTNFLPHTFGGGTKVEIK 27%

For H1H116N (antibody, human IgG1, V domains shown, Tested in human IgG1 Fc format (H1H); also called H1M116N) VH: QVQLQESGPGLVKPSQTLSLTCTVSGGSVSSGDYYWSWIRQHPGKGLDWIGHIYYSGSTYYNPSLKSRVTISLDTSKNQFSLKLNSVTAADTAVYYCARTAITGTMDYWGQGTLVTVSS VL: EIVMTQSPATLSVSAGERATLSCRASQSVSSNLAWFQQKPGQAPRLLIYDASTRATGIPARFSGSGSGTEFTLIISSLQSEDFALYYCQQYNSWWTFGQGTKVEIK , what is its reported Maximum Cell Killing (%)? 29%
